Reference for the values: patent US10280218B2

Target: T1, BMP4 (human)
T1 chain: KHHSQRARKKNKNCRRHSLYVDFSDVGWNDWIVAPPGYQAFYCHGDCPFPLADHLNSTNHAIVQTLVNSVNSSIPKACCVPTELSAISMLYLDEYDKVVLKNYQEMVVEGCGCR
Assay: SPR

[
  {
    "binder": "C8-C8 (antibody, V domains shown) V domain 1: EVQLVESGGGLVQAGGSLRLSCAASGRTFRINDMGWYRQAPGKSRDMVARITSGGNTNYADSVKGRFTISRDNAKNTVYLQMNSLKPEDTAVYYCNADGLRFDSTRYRPFDSWGQGTQVTVSS V domain 2: EVQLVESGGGLVQAGGSLRLSCAASGRTFRINDMGWYRQAPGKSRDMVARITSGGNTNYADSVKGRFTISRDNAKNTVYLQMNSLKPEDTAVYYCNADGLRFDSTRYRPFDSWGQGTQVTVSS",
    "unit_label": "nM",
    "Kd": 0.031
  },
  {
    "binder": "E7 (antibody, V domains shown) VH: EVQLVESGGGLVQAGGSLRLSCAASGSIRGFVAMAWYRQAPGKQREWVATVTNGGTLYGDSVKGRFTGSRDNAKNTVYLQMNSLKPEDTAVYYCALRQIGASGYDYWGQGTQVTVSS",
    "unit_label": "nM",
    "Kd": 0.512
  },
  {
    "binder": "C8-E7 (antibody, V domains shown) V domain 1: EVQLVESGGGLVQAGGSLRLSCAASGRTFRINDMGWYRQAPGKSRDMVARITSGGNTNYADSVKGRFTISRDNAKNTVYLQMNSLKPEDTAVYYCNADGLRFDSTRYRPFDSWGQGTQVTVSS V domain 2: EVQLVESGGGLVQAGGSLRLSCAASGSIRGFVAMAWYRQAPGKQREWVATVTNGGTLYGDSVKGRFTGSRDNAKNTVYLQMNSLKPEDTAVYYCALRQIGASGYDYWGQGTQVTVSS",
    "unit_label": "nM",
    "Kd": 0.099
  },
  {
    "binder": "C4-C4 (antibody, V domains shown) V domain 1: EVQLVESGGGLVQAGGSLRLSCAASGRTFSTYAMGWFRQAPGKEREFVAAISKGGGITYYSDSVRGRFTISKENAKNTVYLQMNSLKPEDTAVYYCAADPVSSVAKSPVAYPYWGQGTQVTVSS V domain 2: EVQLVESGGGLVQAGGSLRLSCAASGRTFSTYAMGWFRQAPGKEREFVAAISKGGGITYYSDSVRGRFTISKENAKNTVYLQMNSLKPEDTAVYYCAADPVSSVAKSPVAYPYWGQGTQVTVSS",
    "unit_label": "nM",
    "Kd": 0.0097
  }
]
